tgt: Gal(b1-3)GlcNAc(b1-3)Gal(b1-4)GlcNAc
measurement-protocol: glycan array binding signal (z-score within array); higher = stronger binding
experimental-context: glycan notation: IUPAC condensed, linker removed
This is one part of a sample in which the strongest signals are shown more often than they occur.
For each of the binders below, state its glycan array binding signal (z-score).

Each binder below has a recorded value; state its glycan array binding signal (z-score).
1. LSectin (Mus musculus), Q8BNX1 (protein) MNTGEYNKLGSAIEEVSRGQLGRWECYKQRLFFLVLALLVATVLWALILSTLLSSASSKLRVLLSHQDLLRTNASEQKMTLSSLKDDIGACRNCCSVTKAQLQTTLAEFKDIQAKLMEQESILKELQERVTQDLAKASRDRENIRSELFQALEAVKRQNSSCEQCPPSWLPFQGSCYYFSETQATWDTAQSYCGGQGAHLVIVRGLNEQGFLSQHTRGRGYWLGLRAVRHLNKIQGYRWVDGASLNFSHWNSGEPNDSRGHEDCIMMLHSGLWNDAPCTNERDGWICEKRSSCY
2. CTMLA2 (Anopheles gambiae), Q7Q7F8 (protein) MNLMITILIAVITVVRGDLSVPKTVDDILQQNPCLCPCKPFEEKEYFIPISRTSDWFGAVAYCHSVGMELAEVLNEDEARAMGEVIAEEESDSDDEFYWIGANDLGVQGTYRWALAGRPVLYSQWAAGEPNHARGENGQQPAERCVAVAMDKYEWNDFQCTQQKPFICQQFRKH
3. CLEC9a (Mus musculus), Q8BRU4 (protein) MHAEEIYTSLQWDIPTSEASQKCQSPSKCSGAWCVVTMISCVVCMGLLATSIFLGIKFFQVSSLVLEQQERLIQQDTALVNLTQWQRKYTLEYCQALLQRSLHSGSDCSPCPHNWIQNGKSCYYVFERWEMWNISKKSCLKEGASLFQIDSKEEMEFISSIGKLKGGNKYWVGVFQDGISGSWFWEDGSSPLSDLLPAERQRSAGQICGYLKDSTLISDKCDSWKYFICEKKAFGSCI

[-0.175, -0.58, 1.18]
